test system: MDA-MB-231; assay: kynurenine production, fold change vs DMSO IFNg/TNF control; higher = more kynurenine produced (less inhibition); settings: pre-treatment time: 18 h then 24 h IFNg/TNF
Quantity measured: kynurenine production
Number, no unit, nothing else.

Compound	kynurenine production
CC1(C)CC[C@]2(C(=O)O)CC[C@]3(C)C(=CC[C@@H]4[C@@]5(C)CC[C@H](O[C@@H]6O[C@H](C(=O)O)[C@@H](O)[C@H](O[C@@H]7OC[C@@H](O)[C@H](O)[C@H]7O)[C@H]6O)C(C)(C)[C@@H]5CC[C@]43C)[C@@H]2C1 [Momordin Ic] (compound dose: 10 uM)	0.967

Please find the next compound below.
Form field, kynurenine production with MDA-MB-231, item C=C1C(=O)O[C@H]2C[C@@H](C)[C@@H]3[C@@H](OC(C)=O)C[C@H](O)[C@@]3(C)[C@@H](OC(C)=O)[C@H]12 [Britannin] (compound dose: 10 uM) : 0.268

---

system: MDA-MB-231; test: kynurenine production, fold change vs DMSO IFNg/TNF control; higher = more kynurenine produced (less inhibition); details: pre-treatment time: 18 h then 24 h IFNg/TNF
Where a name gives a salt, the structure may show the parent alone.
Quantity measured: kynurenine production
// no unit, no text: just the number

Molecule	Measured target	kynurenine production
CC1CCC(C(C)C)C(O)C1 (single isomer, unassigned; (-)) [(-)-Menthol] (compound dose: 10 uM)	MDA-MB-231	0.988

Documented kynurenine production of O=C(O)/C=C/c1ccccc1O [O-coumaric acid] (compound dose: 10 uM) : 0.992

// kynurenine production value for COc1ccc2c3c1O[C@H]1C[C@@H](O)C=C[C@@]31CCN(C)C2 [Galantamine hydrobromide] (compound dose: 10 uM) : 0.792

The measured kynurenine production associated with CC(C)=CCC[C@@H](C)CCO [(R)-Citronellol] (compound dose: 10 uM) reads 0.824

The molecule listed as CC1=CC[C@@H](C(C)(C)O)CC1 [(-)-α-terpineol] (compound dose: 10 uM) has a reported kynurenine production of 0.913

Measured kynurenine production of C[C@]12C[C@@H](O)[C@@H]3C[C@@]1(O[C@@H]1O[C@H](CO)[C@@H](O)[C@H](O)[C@H]1O)[C@@]3(COC(=O)c1ccccc1)C(=O)O2 [Albiflorin] (compound dose: 10 uM) : 0.908

Notebook: CC(=O)OC[C@H]1O[C@@H](OC[C@H]2O[C@@H](OC(=O)[C@]34CCC(C)(C)C[C@H]3C3=CC[C@@H]5[C@@]6(C)CC[C@H](O[C@@H]7OC[C@H](O)[C@H](O)[C@H]7O[C@@H]7O[C@H](CO)[C@@H](O)[C@H](O)[C@H]7O)C(C)(C)[C@@H]6CC[C@@]5(C)[C@]3(C)CC4)[C@H](O)[C@@H](O)[C@@H]2O)[C@H](O)[C@@H](O)[C@@H]1O[C@@H]1O[C@@H](C)[C@H](O)[C@@H](O)[C@H]1O [Acanthopanaxoside B] (compound dose: 10 uM) , kynurenine production read as 1.01

Entry under test: C=C1C(=O)[C@@]23[C@H](O)C[C@@H]4C(C)(C)C(=O)CC[C@@]4(C)[C@@H]2CC[C@@H]1[C@H]3O [Glaucocalyxin A] (compound dose: 10 uM) . Its kynurenine production was 0.109

# molecule CC(=O)OC1CCC2(C)C(CCC3(C)C2CC=C2C4C(C)C(C)CCC4(C(=O)O)CCC23C)C1(C)C (stereo unspecified) [Ursolic acid acetate] (compound dose: 10 uM) ; its kynurenine production = 0.771

For O[C@H]1[C@H]2c3cc4c(cc3CN3CCC(=C[C@@H]1O)[C@H]23)OCO4 [Lycorine chloride] (compound dose: 10 uM) the molecule record lists kynurenine production as 0.184

Reported kynurenine production for CC1=CCC2C[C@H]1C2(C)C [(1R)-α-Pinene] (compound dose: 10 uM) was 0.79

---

test system: MDA-MB-231; experiment: kynurenine production, fold change vs DMSO IFNg/TNF control; higher = more kynurenine produced (less inhibition); conditions: pre-treatment time: 18 h then 24 h IFNg/TNF
Quantity measured: kynurenine production
Answer with a bare number; do not write a unit.

Below, 2 compounds whose answers are already recorded.
Compound	kynurenine production
CC1(C)CC[C@]2(C(=O)O[C@@H]3O[C@H](CO)[C@@H](O)[C@H](O)[C@H]3O)CC[C@]3(C)C(=CC[C@@H]4[C@@]5(C)CC[C@H](O[C@@H]6O[C@H](C(=O)O)[C@@H](O)[C@H](O)[C@H]6O[C@@H]6O[C@H](CO)[C@@H](O)[C@H](O)[C@H]6O)C(C)(C)[C@@H]5CC[C@]43C)[C@@H]2C1 [Ginsenoside Ro] (compound dose: 10 uM)	1.05
C[C@H]1[C@H](C)CC[C@]2(CO)CC[C@]3(C)C(=CC[C@@H]4[C@@]5(C)CC[C@H](O)C(C)(C)[C@@H]5CC[C@]43C)[C@H]12 [Uvaol] (compound dose: 10 uM)	0.98

Reported kynurenine production of C=CC(=C)CCC=C(C)C [Myrcene] (compound dose: 10 uM) : 0.867

Looking up C[C@H](C[C@H](O)[C@H]1OC1(C)C)C1=C2C[C@H](O)[C@H]3[C@@]4(C)CCC(=O)C(C)(C)[C@@H]4CC[C@]3(C)[C@@]2(C)CC1 [Alisol B] (compound dose: 10 uM) , I see its kynurenine production listed as 1.03

The reported kynurenine production of the compound CC12CCC(CC1=O)C2(C)C (stereo not given) [Camphor] (compound dose: 10 uM) was 0.832

What the record says about CC(=O)OC1COC(OC2CCC34CC35CCC3(C)C(C6(C)CCC(C(C)(C)O)O6)C(O)CC3(C)C5CC(OC3OC(CO)C(O)C(O)C3O)C4C2(C)C)C(OC(C)=O)C1O (stereo not given) [Isoastragaloside I] (compound dose: 10 uM) : kynurenine production is 0.925

Query CCCCCCCCCC(=O)O[C@@H]1[C@@H](C)[C@@]2(O)[C@@H](C=C(COC(=O)Cc3ccc(O)c(OC)c3)C[C@]3(O)C(=O)C(C)=C[C@@H]23)[C@@H]2C(C)(C)[C@]12OC(=O)CCCCCCCCC [Phorbol 12,13-didecanoate 20-homovanillate] (compound dose: 10 uM) yields kynurenine production of 0.74

Reported kynurenine production ( C=C1C(=O)O[C@@H]2[C@H]3C(C)=CC[C@@]34O[C@@]4(C)CC[C@@H]12 [Arglabin] (compound dose: 10 uM) ) = 0.822

Entry under test: C=C1CC[C@@H]2[C@](C)(COC(=O)CCC(=O)O)[C@H](OC(=O)CCC(=O)O)CC[C@@]2(C)[C@@H]1/C=C/C1=CCOC1=O [Dehydroandrographolide succinate] (compound dose: 10 uM) . Its kynurenine production was 1.2

Please fill in: kynurenine production reported for CC(=O)c1c[nH]c2ccccc12 [3-acetylindol] (compound dose: 10 uM) = 1.11

---

system: MDA-MB-231; assay: cell viability relative to vehicle unstimulated control (fraction); higher = more viable cells; conditions: pre-treatment time: 18 h then 24 h IFNg/TNF
Quantity measured: cell viability
// print number alone

Known value: MDA-MB-231 cell viability of the molecule C=C[C@]1(C)CC[C@@H](C(=C)C)C[C@H]1C(=C)C [β-Elemene] (compound dose: 10 uM) equals 0.939

Note to self: cell viability of CC(=O)OC(C)(C)CCC(=O)[C@](C)(O)[C@H]1[C@H](O)C[C@@]2(C)[C@@H]3CC=C4[C@@H](C[C@H](O)[C@@H](O)C4(C)C)[C@]3(C)C(=O)C[C@]12C [Cucurbitacin IIa] (compound dose: 10 uM) with MDA-MB-231 was 0.939

The reported cell viability value, MDA-MB-231, for O=C(O)c1cccnc1 [Nicotinic acid] (compound dose: 10 uM) reads 0.917

Observed cell viability on MDA-MB-231, entry COC(=O)C1=CC[C@@]23CC[C@@H]([C@@](C)(/C=C/C=C(\C)C(=O)O)OC2=O)[C@@]3(OC(C)=O)CC1 [Pseudolaric Acid B] (compound dose: 10 uM) , equals 0.898

cell viability for MDA-MB-231 with input C[C@H](CC[C@@H](O)C(C)(C)O)[C@H]1CC[C@@]2(C)[C@@H]3CC=C4[C@@H](CC[C@H](O)C4(C)C)[C@]3(C)[C@H](O)C[C@]12C [Mogrol] (compound dose: 10 uM) equals 0.939

// cell viability (MDA-MB-231) for CC12CCC(C1)C(C)(C)C2=O (single isomer, unassigned; (-)) [(-)-Fenchone] (compound dose: 10 uM) = 1.12

---

tested on: MDA-MB-231; test: cell viability relative to vehicle unstimulated control (fraction); higher = more viable cells; conditions: pre-treatment time: 18 h then 24 h IFNg/TNF
Quantity measured: cell viability
Number, no unit, nothing else.

Compound	cell viability
CC1=CCC2CC1C2(C)C (stereo not drawn) [(-)-α-Pinene] (compound dose: 10 uM)	1.01
O=C(O)C1=CO[C@@H](O[C@@H]2O[C@H](CO)[C@@H](O)[C@H](O)[C@H]2O)[C@H]2[C@@H]1C=C[C@]2(O)CO [Monotropein] (compound dose: 10 uM)	0.866
COc1ccc2c(c1O)C(Cc1ccc(O)cc1)[N+](C)(C)CC2 (stereo not drawn) [Oblongine] (compound dose: 10 uM)	0.969
COc1ccc(-c2coc3cc(O)ccc3c2=O)cc1 [Formononetin] (compound dose: 10 uM)	0.988
C[C@H](CC[C@@H](O[C@@H]1O[C@H](CO)[C@@H](O)[C@H](O)[C@H]1O)C(C)(C)O)[C@H]1CC[C@@]2(C)[C@@H]3CC=C4[C@@H](CC[C@H](O[C@@H]5O[C@H](CO)[C@@H](O)[C@H](O)[C@H]5O)C4(C)C)[C@]3(C)[C@H](O)C[C@]12C [Mogroside IIe] (compound dose: 10 uM)	0.984
C/C1=C\CC[C@]23O[C@H]2[C@@H](OC3=O)c2c(C)coc2C1 [Linderane] (compound dose: 10 uM)	0.985
C=C1CC[C@@H]2[C@](C)(COC(=O)CCC(=O)O)[C@H](OC(=O)CCC(=O)O)CC[C@@]2(C)[C@@H]1/C=C/C1=CCOC1=O [Dehydroandrographolide succinate] (compound dose: 10 uM)	0.898
C[C@@H]1O[C@@H](O[C@H]2[C@H](O[C@H]3CC[C@@]4(C)[C@@H](CC[C@]5(C)[C@@H]4CC=C4[C@@H]6CC(C)(C)CC[C@]6(C(=O)O[C@@H]6O[C@H](CO[C@@H]7O[C@H](CO)[C@@H](O)[C@H](O)[C@H]7O)[C@@H](O)[C@H](O)[C@H]6O)CC[C@]45C)[C@]3(C)CO)OC[C@H](O)[C@@H]2O)[C@H](O)[C@H](O[C@@H]2O[C@H](CO)[C@@H](O[C@@H]3O[C@H](CO)[C@@H](O)[C@H](O)[C@H]3O)[C@H](O)[C@H]2O)[C@H]1O [Macranthoidin B] (compound dose: 10 uM)	0.99

Query C=C1[C@H](OC(=O)c2cccnc2)C[C@H]2[C@@H](/C=C(\C)C(=O)[C@@]3(OC(C)=O)C[C@H](C)[C@H](OC(=O)c4ccccc4)[C@@H]3[C@H]1OC(C)=O)C2(C)C [Euphorbia factor L9] (compound dose: 10 uM) yields cell viability of 1.07

The reported cell viability of the compound CC(C)=CCCC(C)(OC1OC(CO)C(O)C(O)C1O)C1CCC2(C)C1C(O)CC1C3(C)CC(O)C(OC4OC(CO)C(O)C(O)C4OC4OC(CO)C(O)C(O)C4O)C(C)(C)C3CCC12C (stereo not drawn) [Gypenoside XLVI] (compound dose: 10 uM) was 1.03

cell viability reading for C=C1[C@H](OC(C)=O)[C@@H](O)[C@@H](OC(=O)c2cccnc2)C(C)(C)/C=C/[C@H](C)[C@H](OC(C)=O)[C@@]2(O)C[C@@](C)(OC(C)=O)[C@H](OC(=O)c3ccccc3)[C@@H]2[C@H]1OC(C)=O [Jatrophane 5] (compound dose: 10 uM) : 1.12

# cell viability (compound: CC(C)(O)[C@H]1CC[C@@](C)([C@H]2CC[C@]3(C)[C@@H]2[C@H](O)C[C@@H]2[C@@]4(C)CC[C@H](O)C(C)(C)[C@@H]4[C@@H](O[C@@H]4O[C@H](CO)[C@@H](O)[C@H](O)[C@H]4O)C[C@]23C)O1 [Pseudoginsenoside RT5] (compound dose: 10 uM) ) is 0.987

Record summary for COc1cc2cc3c4c(cc5c(c4c2cc1OC)OCO5)CCN3C [Dehydrodicentrine] (compound dose: 10 uM) : reported cell viability = 0.946

Measured cell viability, CC(=O)O[C@@]1(C)C[C@@H](O)[C@]2(O)C=CO[C@@H](O[C@@H]3O[C@H](CO)[C@@H](O)[C@H](O)[C@H]3O)[C@@H]21 [8-O-Acetylharpagide] (compound dose: 10 uM) : 0.9

Documented cell viability of C[C@H]1[C@H](C)CC[C@]2(C(=O)O)CC[C@]3(C)C(=CC[C@@H]4[C@@]5(C)CC[C@H](O)C(C)(C)[C@@H]5CC[C@]43C)[C@H]12 [3-Epiursolic Acid] (compound dose: 10 uM) : 1.02

Value of cell viability reported for the compound CC1=CC[C@@H](C(C)(C)O)CC1 [α terpineol (mixed)] (compound dose: 10 uM) is 0.977

Per the records, this compound ( CCOC(=O)/C=C/c1ccccc1 [Ethyl cinnamate] (compound dose: 10 uM) ) has cell viability equal to 0.988

Record OCC1=C[C@@H](O)[C@]2(O[C@@H]3O[C@H](CO)[C@@H](O)[C@H](O)[C@H]3O[C@@H]3O[C@H](CO)[C@@H](O)[C@H](O)[C@H]3O)C=CO[C@@H](O[C@@H]3O[C@H](CO)[C@@H](O)[C@H](O)[C@H]3O)[C@H]12 [Rehmannioside D] (compound dose: 10 uM) . Reported cell viability: 1.05
